- testSystem: T1, RXFP3 (relaxin family peptide receptor 3) on CHO-K1-RXFP3 cells (UniProt Q9NSD7 1-469, limits assumed)
- T1 construct: whole, on cells; also called GPCR135
- T1 sequence (looked up): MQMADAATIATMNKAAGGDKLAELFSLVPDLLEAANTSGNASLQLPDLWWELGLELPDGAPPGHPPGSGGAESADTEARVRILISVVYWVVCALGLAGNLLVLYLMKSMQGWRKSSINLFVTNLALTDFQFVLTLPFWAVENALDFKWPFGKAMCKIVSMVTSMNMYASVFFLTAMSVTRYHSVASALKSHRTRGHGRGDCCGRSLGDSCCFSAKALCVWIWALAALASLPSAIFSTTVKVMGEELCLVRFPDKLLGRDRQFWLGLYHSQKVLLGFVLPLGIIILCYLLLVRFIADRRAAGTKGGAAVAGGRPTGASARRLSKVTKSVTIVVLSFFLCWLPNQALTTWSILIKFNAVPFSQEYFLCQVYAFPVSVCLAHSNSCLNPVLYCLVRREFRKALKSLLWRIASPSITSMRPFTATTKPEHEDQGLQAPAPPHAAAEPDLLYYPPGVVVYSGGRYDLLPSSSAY
- assayProtocol: competition with Eu-H3B1-22R on CHO-K1-RXFP3 cells
Square brackets hold non-standard residues; d marks the D form. Ends that are not written are not given here. αMeF = C[C@](N)(Cc1ccccc1)C(=O)O
attributeMeasured: pKi
Just the number, please.

Examples with answers:
>>> recordednumber("RAAPYGVRLSGREFIRAVIFTSR (23 residues) [H3B1-22R (Formula XI, known single chain antagonist of RXFP3)]")
7.64
>>> recordednumber("SGR[αMeF]FIR[αMeF]VIFTSR (14 residues) [H3B10-22R13/17αF (Formula X, RXFP3 antagonist)]")
7.6
>>> recordednumber("SGRFFIRFVIFTSR (14 residues) [H3B10-22R13/17FF (Formula XIII, non-alpha-methylated analogue of Formula X)]")
6.67

q: Entry SGREFIRAVIFTSR (14 residues) [H3B10-22R13/17EA (Formula XII, truncated form of H3B1-22R)] : reported pKi = ?
a: 6.08

All figures here come from patent US20260265334A1.
